Recorded values, source patent US20240109974A1.

The following binders are shown together with reported kon values.
# MEASURED_TARGET: T1, Cynomolgus TNFR2-His (Sino 90102-C08H) (cynomolgus monkey, UniProt A0A2K5VET2 132-366)
# T1 construct: Bought protein; also called cynomolgus monkey TNFR2; recombinant cynomolgus monkey TNFR2 protein; not shown: His tag
# T1 sequence: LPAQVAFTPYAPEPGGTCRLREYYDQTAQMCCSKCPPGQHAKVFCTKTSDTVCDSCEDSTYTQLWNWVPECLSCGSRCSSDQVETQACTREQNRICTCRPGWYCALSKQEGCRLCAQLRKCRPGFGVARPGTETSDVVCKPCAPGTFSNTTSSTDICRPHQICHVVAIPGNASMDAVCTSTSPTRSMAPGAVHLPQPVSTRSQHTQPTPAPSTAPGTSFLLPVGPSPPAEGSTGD
# PROCEDURE_SUMMARY: SPR (Biacore T200), antibody captured on Protein A chip
Write the number in M⁻¹ s⁻¹ without appending the unit.

Indicate its recorded kon; the binder in question is 224-Hu7 (antibody, V domains shown, Humanized form of #224; also called VH9 + VL10) VH: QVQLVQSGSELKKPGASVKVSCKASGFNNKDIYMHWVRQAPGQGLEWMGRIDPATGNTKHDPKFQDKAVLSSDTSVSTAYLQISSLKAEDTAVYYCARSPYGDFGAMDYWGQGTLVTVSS VL: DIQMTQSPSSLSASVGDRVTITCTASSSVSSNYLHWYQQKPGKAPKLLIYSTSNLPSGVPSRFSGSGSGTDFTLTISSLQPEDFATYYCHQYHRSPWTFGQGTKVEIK
318000

Identify the reported kon for the following entry. 224-Hu1 (antibody, V domains shown, Humanized form of #224; also called VH8 + VL6) VH: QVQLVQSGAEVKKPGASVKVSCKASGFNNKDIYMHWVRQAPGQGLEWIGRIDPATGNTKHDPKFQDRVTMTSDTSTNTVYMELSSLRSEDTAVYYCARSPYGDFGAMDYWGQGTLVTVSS VL: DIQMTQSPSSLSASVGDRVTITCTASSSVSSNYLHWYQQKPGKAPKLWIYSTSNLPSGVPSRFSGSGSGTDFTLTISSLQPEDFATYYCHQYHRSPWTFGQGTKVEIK
241000

Indicate the recorded kon value for this binder: 219-Hu3 (antibody, V domains shown, also called VH5 + VL5) VH: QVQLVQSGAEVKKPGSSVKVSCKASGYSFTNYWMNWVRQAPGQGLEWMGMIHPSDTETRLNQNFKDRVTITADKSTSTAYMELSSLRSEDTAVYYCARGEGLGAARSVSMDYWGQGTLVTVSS VL: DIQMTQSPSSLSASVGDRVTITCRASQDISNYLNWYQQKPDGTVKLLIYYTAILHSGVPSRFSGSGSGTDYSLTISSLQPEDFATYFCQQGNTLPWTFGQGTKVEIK
552000

Recall and state the measured kon for 001-Hu4 (antibody, V domains shown, Humanized form of #001; also called VH2 + VL4) VH: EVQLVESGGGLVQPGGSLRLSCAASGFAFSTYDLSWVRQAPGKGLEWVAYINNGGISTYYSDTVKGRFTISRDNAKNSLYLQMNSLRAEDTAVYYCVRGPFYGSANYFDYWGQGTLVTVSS VL: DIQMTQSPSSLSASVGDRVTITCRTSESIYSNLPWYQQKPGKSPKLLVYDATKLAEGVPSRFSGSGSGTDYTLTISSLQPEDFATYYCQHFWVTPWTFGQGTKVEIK .
354000

Supply kon value. Item: 224-Hu5 (antibody, V domains shown, Humanized form of #224; also called VH9 + VL9) VH: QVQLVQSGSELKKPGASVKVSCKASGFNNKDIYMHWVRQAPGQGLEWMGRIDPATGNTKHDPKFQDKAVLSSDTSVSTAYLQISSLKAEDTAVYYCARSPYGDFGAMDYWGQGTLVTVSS VL: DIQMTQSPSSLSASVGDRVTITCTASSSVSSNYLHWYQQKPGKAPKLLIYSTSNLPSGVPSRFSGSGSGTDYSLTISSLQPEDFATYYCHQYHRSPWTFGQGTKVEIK
250000

For 001-Hu2 (antibody, V domains shown, Humanized form of #001; also called VH2 + VL2) VH: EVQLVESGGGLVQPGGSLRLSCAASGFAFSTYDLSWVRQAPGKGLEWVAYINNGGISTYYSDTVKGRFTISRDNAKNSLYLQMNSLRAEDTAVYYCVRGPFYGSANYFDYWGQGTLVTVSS VL: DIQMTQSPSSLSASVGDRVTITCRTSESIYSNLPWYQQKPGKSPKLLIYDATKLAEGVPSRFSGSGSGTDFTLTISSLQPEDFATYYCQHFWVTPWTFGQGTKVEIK , write its kon.
273000

Tell us which kon value is on record for 219-Hu5 (antibody, V domains shown, also called VH7 + VL5) VH: QVQLVQSGAEVKKPGSSVKVSCKASGYSFTNYWMNWVRQAPGQGLEWMGMIHPSDTETRLNQNFKDRVTITVDKSTSTAYMELSSLRSEDTAVYYCARGEGLGAARSVSMDYWGQGTLVTVSS VL: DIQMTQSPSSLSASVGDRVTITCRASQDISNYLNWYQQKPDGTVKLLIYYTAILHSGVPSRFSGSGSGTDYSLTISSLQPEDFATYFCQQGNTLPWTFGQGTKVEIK
608000

Respond only with kon recorded for 219-Hu2 (antibody, V domains shown, also called VH4 + VL5) VH: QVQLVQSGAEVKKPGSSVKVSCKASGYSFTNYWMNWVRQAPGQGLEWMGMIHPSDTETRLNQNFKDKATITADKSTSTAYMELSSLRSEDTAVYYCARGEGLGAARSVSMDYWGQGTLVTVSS VL: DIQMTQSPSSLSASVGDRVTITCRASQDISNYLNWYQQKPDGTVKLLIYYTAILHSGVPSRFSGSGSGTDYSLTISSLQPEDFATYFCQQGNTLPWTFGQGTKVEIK
605000

Please indicate kon recorded for 001-Hu1 (antibody, V domains shown, Humanized form of #001; also called VH1 + VL1) VH: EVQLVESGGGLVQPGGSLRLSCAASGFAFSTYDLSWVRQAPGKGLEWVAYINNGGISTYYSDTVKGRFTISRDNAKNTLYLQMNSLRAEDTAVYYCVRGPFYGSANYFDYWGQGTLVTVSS VL: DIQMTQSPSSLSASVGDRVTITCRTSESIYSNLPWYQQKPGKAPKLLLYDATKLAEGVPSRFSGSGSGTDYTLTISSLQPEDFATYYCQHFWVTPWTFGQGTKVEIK
340000
